Known pIC50 of a selection of compounds
Experimental system: Endothelin-1 receptor (Rattus norvegicus)
Sequence (P26684 whole entry): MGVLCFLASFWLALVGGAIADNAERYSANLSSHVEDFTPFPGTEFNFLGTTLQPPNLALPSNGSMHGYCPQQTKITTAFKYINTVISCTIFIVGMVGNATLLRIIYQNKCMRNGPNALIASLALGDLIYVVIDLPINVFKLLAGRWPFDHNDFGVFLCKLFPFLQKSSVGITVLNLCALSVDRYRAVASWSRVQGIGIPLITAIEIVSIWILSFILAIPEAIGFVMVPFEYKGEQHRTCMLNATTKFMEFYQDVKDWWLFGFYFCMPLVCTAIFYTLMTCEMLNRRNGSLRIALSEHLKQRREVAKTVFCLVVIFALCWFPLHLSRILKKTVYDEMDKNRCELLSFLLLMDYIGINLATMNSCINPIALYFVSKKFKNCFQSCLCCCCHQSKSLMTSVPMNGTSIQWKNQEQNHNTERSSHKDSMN
Experimental protocol: Ability to displace [125I]ET1 from the rat endothelin A receptor expressed in rat aorta smooth muscle cells.
Note: pIC50 values are expressed as the negative base-10 logarithm of concentration in M.

// known answers, use as guide
CCOc1ccc2c(c1)[C@@H](c1ccc(OC)cc1)N(CC(=O)O)[C@@H]2c1ccc2c(c1)OCO2
7.02
COc1ccc(C(=O)/C(Cc2ccc(Cl)cc2)=C(\C(=O)O)c2ccc3c(c2)OCO3)cc1
6.96
CCOc1ccc2c(c1)[C@@H](c1ccc(OC)cc1OCC(=O)O)N(CC(=O)O)[C@@H]2c1ccc2c(c1)OCO2
8.27
COc1ccc([C@H]2[C@H](C(=O)O)[C@@H](c3ccc4c(c3)OCO4)CN2CC(=O)Nc2cccc(C)c2C)cc1
7.80
COc1ccc([C@H]2[C@H](C(=O)O)[C@@H](c3ccc4c(c3)OCO4)CN2CC(=O)NC(c2ccccc2)C(C)C)cc1 (stereo partly drawn)
9.15

Provide pIC50, system Endothelin-1 receptor (Rattus norvegicus), entry COc1ccc(C(=O)/C(Cc2ccccc2)=C(\C(=O)O)c2ccc3c(c2)OCO3)cc1OC
7.96

State the measured pIC50 (Endothelin-1 receptor (Rattus norvegicus)) of CCOc1cc(C/C(C(=O)c2ccc(OC)cc2)=C(/C(=O)O)c2ccc3c(c2)OCO3)cc(OCC)c1OCC
9.92

Please respond with reported pIC50 (system Endothelin-1 receptor (Rattus norvegicus)) for COc1ccc(C(=O)/C(Cc2cccc3ccccc23)=C(\C(=O)O)c2ccc3c(c2)OCO3)cc1 .
7.85

* * *

Experimental system: Endothelin-1 receptor (Homo sapiens, UniProt P25101)
Sequence (P25101 whole entry): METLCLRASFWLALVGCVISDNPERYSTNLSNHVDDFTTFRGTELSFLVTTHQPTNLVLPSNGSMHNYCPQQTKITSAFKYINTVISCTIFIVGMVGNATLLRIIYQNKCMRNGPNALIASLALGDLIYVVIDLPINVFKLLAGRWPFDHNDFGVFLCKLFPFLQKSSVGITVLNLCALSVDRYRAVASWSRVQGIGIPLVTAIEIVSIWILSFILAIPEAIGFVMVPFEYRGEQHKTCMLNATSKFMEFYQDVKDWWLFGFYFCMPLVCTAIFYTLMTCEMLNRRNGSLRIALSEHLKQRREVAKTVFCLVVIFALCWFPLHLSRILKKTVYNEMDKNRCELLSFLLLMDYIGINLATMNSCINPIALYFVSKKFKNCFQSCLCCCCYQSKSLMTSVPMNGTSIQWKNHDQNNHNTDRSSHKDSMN
Experimental protocol: Inhibition of [125]ET-1 binding to human Endothelin A receptor expressed in vero cells
Peptide text beside a SMILES is read from it. * marks the point of attachment. Cbz = O=C(OCc1ccccc1)*
Property name: IC50 (µM)
Note: unit µM is implicit; provide only the numeric part.

Report IC50 under test system Endothelin-1 receptor (Homo sapiens, UniProt P25101) for CC(C)C(NC(=O)OCc1ccccc1)C(=O)NC(Cc1ccc(O)cc1)C(=O)O (stereo not drawn) (Cbz-Val-Tyr-OH; configuration not given here) .
0.22

// output IC50; input COC(=O)c1cc(S(=O)(=O)Nc2cccc(-c3cnco3)c2)oc1C ; system Endothelin-1 receptor (Homo sapiens, UniProt P25101)
6.2

* * *

Sequence of the target: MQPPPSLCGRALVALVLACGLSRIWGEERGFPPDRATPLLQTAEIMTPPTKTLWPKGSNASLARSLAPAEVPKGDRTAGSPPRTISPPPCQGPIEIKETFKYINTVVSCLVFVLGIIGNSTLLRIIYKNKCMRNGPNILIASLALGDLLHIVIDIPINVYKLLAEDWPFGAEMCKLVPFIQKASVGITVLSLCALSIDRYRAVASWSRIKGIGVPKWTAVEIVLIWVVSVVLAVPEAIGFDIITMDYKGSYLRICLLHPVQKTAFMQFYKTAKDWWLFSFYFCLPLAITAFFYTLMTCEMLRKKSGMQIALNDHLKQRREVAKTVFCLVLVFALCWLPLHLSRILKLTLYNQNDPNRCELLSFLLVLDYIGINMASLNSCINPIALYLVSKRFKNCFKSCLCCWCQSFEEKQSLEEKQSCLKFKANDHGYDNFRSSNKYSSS
Property name: IC50 (nM)
Only the number, expressed in nM, is required.

Give recorded IC50. CCCCC1=C(C(=O)O)[C@@H](c2ccc3c(c2)OCO3)Oc2ccc(OC(C)C)cc21
400
